PROTOCOL_DESCRIPTION: physchem
CONDITION_DESCRIPTION: log P
Threshold rule: chromatographic logP greater than or equal to 4 is Met; below that, Not met.

Observe how each entry below is paired with its result.
molecule="CC(C)C(C)Nc1c(-c2ccc(F)cc2Cl)cnc2c(Cl)cnn12 (stereo not drawn)" discrete_label=Met
molecule="CC(Nc1c(-c2ccc(F)cc2Cl)c(Cl)nc2c(C=O)cnn12)C(C)(C)C (stereo not drawn)" discrete_label=Met
molecule="CC(C)C(C)Nc1c(-c2c(F)cccc2Cl)cnc2c(C#N)cnn12 (stereo not drawn)" discrete_label="Not met"
molecule="C[C@H](Nc1c(-c2ccc(F)cc2Cl)c(Cl)nc2c(C#N)cnn12)C(F)(F)F (single isomer, unassigned)" discrete_label="Not met"

Here is the next item to consider.
Q: I'd appreciate it if you could say whether CO/N=C\c1cnn2c(NC(C)C(C)(C)C)c(-c3ccc(F)cc3Cl)c(Cl)nc12 (stereo not drawn) has chromatographic logP at least equal to 4.
Result: Met
